test: in vivo; conditions: male, CD1, mouse, plasma, iv, 1 mg/kg
Labelling: half-life reported below 8 min becomes TRUE; at or above becomes FALSE.

Here's what some known entries look like.
CNc1cncc(C(=O)N2C[C@H](Nc3c(C(=O)N4C[C@@H](C)O[C@@H](C)C4)cc(Br)cc3[N+](=O)[O-])C[C@@H](OC)C2)c1
TRUE
CNc1cncc(C(=O)N2C[C@H](Nc3c(C(=O)N4C[C@@H](C)O[C@@H](C)C4)cc(Br)cc3[N+](=O)[O-])[C@@H](OC)C2)c1
FALSE

Is half-life strictly under 8 min for the entry CNc1cncc(C(=O)N2CCC[C@@H](Nc3c(C(=O)N4C[C@@H](C)O[C@@H](C)C4)cc(Br)cc3[N+](=O)[O-])C2)c1 ?
TRUE

Is half-life strictly under 8 min for the entry CNc1cncc(C(=O)N2CCC[C@@H](Nc3c(C(=O)N4CCOC(F)(F)C4)cc(Br)cc3[N+](=O)[O-])C2)c1 ?
TRUE

Is half-life strictly under 8 min for the entry O=C(c1cc(Br)cc([N+](=O)[O-])c1N[C@@H]1CCCN(C(=O)[C@H]2CNCC(F)(F)C2)C1)N1CCCCC1 ?
FALSE

---

Kindly state Cmax for each of the entries shown.
experiment: in vivo; conditions: male, CD1, mouse, in vivo, po, 10 mg/kg
Give bare numbers, in ng/mL.

Here is how some compounds turned out for Cmax.
CNc1cncc(C(=O)N2C[C@H](Nc3c(C(=O)N4C[C@@H](C)O[C@@H](C)C4)cc(Br)cc3[N+](=O)[O-])[C@@H](OC)C2)c1 [Example 321]
1640
CNc1cncc(C(=O)N2CCC[C@@H](Nc3c(C(=O)N4CCOC(F)(F)C4)cc(Br)cc3[N+](=O)[O-])C2)c1 [Example 295]
697

Attention now turns to another entry.
What does the record list as Cmax for CNc1cncc(C(=O)N2CCC[C@@H](Nc3c(C(=O)N4CCCC(F)(F)C4)cc(Br)cc3[N+](=O)[O-])C2)c1 [Example 36] ?
365

---

target: SARS-COV-2 3CLpro/Mpro protease (Severe acute respiratory syndrome coronavirus 2 (2019-nCoV) (SARS-CoV-2), UniProt P0DTD1); test: Inhibitory effect on SARS-COV-2 3CLpro/Mpro protease by fluorescence resonance energy transfer; format: biochemical; settings: activity intervals A-D, read-out: IC50 (nM), Inhibition on SARS-CoV-2 3CLpro/Mpro protease
Kindly state IC50 for each of the entries shown.

O=C(c1cncc(I)c1)N1C[C@H](Nc2c(C(=O)N3CCCCC3)cc(Br)cc2[N+](=O)[O-])C(F)(F)C1 [Example 209]
10 to 50 nM
O=C(c1cc(Br)cc([N+](=O)[O-])c1N[C@@H]1CCCN(C(=O)c2cncc3ccccc23)C1)N1CCC(F)(F)CC1 [Example 6]
< 10 nM
C[C@@H]1CN(C(=O)c2cc(Br)cc([N+](=O)[O-])c2N[C@@H]2CCCN(C(=O)c3cncc4[nH]ccc34)C2)C[C@H](C)O1 [Example 17]
10 to 50 nM
CNc1cncc(C(=O)N2C[C@H](Nc3c(C(=O)N4C[C@@H](C)O[C@@H](C)C4)cc(Br)cc3[N+](=O)[O-])C[C@H]2C(=O)Nc2cnoc2)c1 [Example 369]
50 to 100 nM
CNc1cncc(C(=O)N[C@H]2CCCC[C@H]2Nc2c(C(=O)N3CCN(CCOC)CC3)cc(Br)cc2[N+](=O)[O-])c1 [Example 222]
10 to 50 nM

Items follow; give IC50 for each.
1. CNc1cncc(C(=O)N2CCC[C@@H](Nc3c(C(=O)N4CCN(CCOC)[C@H](C)C4)cc(Br)cc3[N+](=O)[O-])C2)c1 [Example 238]
2. CNc1cncc(C(=O)N2CCC[C@@H](Nc3c(C(=O)N4CCc5nn(C)cc5C4)cc(Br)cc3[N+](=O)[O-])C2)c1 [Example 313]
3. CNc1cncc(C(=O)N2CC(Nc3c(C(=O)N4CCC[C@@H](C)C4)cc(Br)cc3[N+](=O)[O-])C(C)(C)C2)c1 (stereo partly drawn) [Example 174]

["10 to 50 nM", "10 to 50 nM", "10 to 50 nM"]
